test: Cmax in human at 1 g, po after 0.5 hrs; format: ADME, organism-based; design: dose 1 g, route oral; settings: in vivo
property.name: Cmax
Answers without a unit are incomplete; give the number and then its unit.

-- ask Using the record for CC1(C)S[C@@H]2[C@H](NC(=O)[C@H](N)c3ccc(O)cc3)C(=O)N2[C@H]1C(=O)O , report its Cmax.
-- reply 19 µg/mL

====

test: AUC in leukopenic mouse with renal failure at 25 mg/kg, sc; format: ADME, organism-based; design: dose 25 mg/kg, route subcutaneous; conditions: plasma
property.name: AUC (µg·h/mL)
Answers are plain numbers, in µg·h/mL.

-- ask Please look up its AUC: CC1(C)S[C@@H]2[C@H](NC(=O)[C@H](N)c3ccc(O)cc3)C(=O)N2[C@H]1C(=O)O
-- reply 227

Hello, the source for this data is ChEMBL document CHEMBL1142137, in case you need it.
